Parameter z-score: see the listing below.
Experiment: ATP-based viability of Huh7 replicon cells – cell-based, CellTiter-Glo luminescence, basal, 48 h, cytotoxicity control for HCV replication inhibitor project, primary screen (AID 1143);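 also: Huh7 hepatoma cells carrying a hepatitis C replication reporter with no stimulus; test concentration not given here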
Conditions: higher = more signal, called active from +8 up or from −8 down
Lab note: write the figure by itself, no unit.

[[record]]
compound = "CCCCCCCCCC(O)C1C=CC2C(=O)N(c3ccccc3)C(=O)C2N1Nc1cc(OC)c(OC)c(OC)c1 (centres undefined)"
reported = -4.06

[[record]]
compound = "CCCCC[C@H]1OC[C@@]23C=C(Br)[C@@H](CC12)[C@@]1(CO1)C3=O (some centres undefined)"
reported = -0.473

[[record]]
compound = "Cc1ccc(S[C@]2(C(=O)NCc3ccccc3)CC(=O)N(C3CCCCC3)[C@@H]2c2ccc(CO)cc2I)cc1"
reported = -4.53


QUERY: Given the compound O=C1C2C=CC(C(O)c3cccc(O)c3)N(Nc3ccc([N+](=O)[O-])cc3)C2C(=O)N1c1ccccc1 (centres undefined) , what is its reported z-score?
RESULT: -0.933
